Test system: HL-60(TB) leukemia
procedure.text: NCI tumour cell line growth inhibition, 48 h; in the data active = GI50 below about 0.43 µM; inactive = the rest
// classify into active, inactive

CC[N+](CC)=c1ccc2nc3c(cc(N)c4ccccc43)oc-2c1    active
O=C(Nc1ccccc1C(F)(F)F)c1cccc(NC2=C(Cl)C(=O)N(Cc3ccccc3)C2=O)c1    inactive
COc1cc2c(cc1C)NC(=O)/C2=C\c1cc(OC)c(OC)c(OC)c1    inactive
COc1cc([C@H](C)c2ccc3ccccc3c2)cc(OC)c1OC    active

[ask] # lookup: test call for CC(C)c1ccc(Cc2cnc(NC(=O)c3cc(Br)cs3)s2)cc1
[reply] inactive

[ask] Next record, please: COc1cc(-c2cnn(C)c2)ccc1Nc1ncc2ccnc(N[C@@H](C)C(C)(C)C)c2n1
[reply] inactive

[ask] Next record, please: CC(=O)Oc1cc(C)ccc1[C@]1(C)CC[C@H](C)/C1=C\Br
[reply] inactive

[ask] Next record, please: Oc1ccc(Br)cc1Sc1cc(Br)ccc1O
[reply] inactive

* * *

Test system: ACHN renal
procedure.text: NCI tumour cell line growth inhibition, 48 h
Where a SMILES comes first, the peptide text is derived from it. [ ]: non-standard residue; d: D form. The star is where a group is joined. Cbz = O=C(OCc1ccccc1)*; Boc = CC(C)(C)OC(=O)*; Aib = CC(C)(N)C(=O)O; OBn = c1ccc(CO*)cc1; OtBu = CC(C)(C)O*; βAla = NCCC(=O)O
property.label: TGI

c1cnc2c(c1)-n1cccc1C1(CCSCC1)NN2    > 100 µM
CCN(CC)CCCCC1CCN(CC(=O)N2CC(C)C(=O)Nc3ccccc32)CC1 (configuration not stated)    > 100 µM
CC(C)(C)OC(=O)CC(NC(=O)OC(C)(C)C)C(=O)NC(CCCCNC(=O)OCc1ccccc1)C(=O)NC(C)(C)C(=O)NCCC(=O)OCc1ccccc1 (configuration not stated) (Boc-D(OtBu)K(Cbz)[Aib][βAla]-OBn; configuration not given here)    > 100 µM
CN(C)CCNc1nc2ccccc2c2c1c1c(n2Cc2ccccc2)-c2ccccc2C1=O    20.7 µM
O=c1cc(-c2ccccc2)[nH]c2cccc(S)c12    > 100 µM
CCC(=O)c1cn(C)c(=O)c2ccccc12    > 100 µM

Now turn to the next compound.
[ask] Value lookup for TGI; key = C/C=C/[C@H]1O[C@@](OC)([C@@H](C)[C@H](O)[C@H](C)[C@H]2OC(=O)/C(OC)=C/C(C)=C/[C@@H](C)[C@@H](O)[C@@H](C)[C@@H](O)[C@H](C)C/C(C)=C/C=C/[C@@H]2OC)CC(OC2CC(O)C(OC(N)=O)C(C)O2)[C@@H]1C (some centres not stated)
[reply] 8.27 µM

* * *

Tested on: LOX IMVI melanoma
procedure.text: NCI tumour cell line growth inhibition, 48 h
Where a SMILES comes first, the peptide text is derived from it. [ ]: non-standard residue; d: D form. The star is where a group is joined. Cbz = O=C(OCc1ccccc1)*; Boc = CC(C)(C)OC(=O)*; Aib = CC(C)(N)C(=O)O; OBn = c1ccc(CO*)cc1; OtBu = CC(C)(C)O*; βAla = NCCC(=O)O
property.label: TGI

COc1cc(C2C3=C(COC3=O)OC(C)(C)Oc3cc4c(cc32)OCO4)cc(OC)c1OC (stereo not given)    > 100 µM
Cc1cc(/C=C2\SC(=Nc3ccccc3)N(C3CCCC3)C2=O)c(C)n1-c1ccc(Cl)cc1    > 100 µM
COC(=O)c1c(-c2ccccc2)cc2c3cc(-c4ccccc4)c(C(=O)OC)n3c3ccccc3n12    > 100 µM
COc1cc2c(cc1OCc1ccccc1)N=C[C@@H]1C/C(=C/C(=O)NCCCN3C(=O)c4cccc5cccc(c45)C3=O)CN1C2=O    > 35.8 µM
C=CC(=O)N1CCCC(n2nc(-c3ccc(Oc4ccccc4)cc3)c3c(N)ncnc32)C1 (stereo not given)    19.1 µM
CCOC(=O)C(C)(C)Oc1ccc2c(=O)cc(-c3ccc(Cl)cc3)oc2c1    > 100 µM

Provide the reported TGI of each entry below, same order.
1. CSC1SCC2C(=O)N(C)C3(CC3C)C(=O)OCC(NC(=O)c3nc4ccccc4cc3O)C(=O)NC(C)C(=O)N(C)C1C(=O)N(C)C1(CC1C)C(=O)OCC(NC(=O)c1nc3ccccc3cc1O)C(=O)NC(C)C(=O)N2C (stereo not given)
2. Cc1cc2nc3c(C(OC4OC(CO)C(O)C(O)C4O)C(O)CO)nn(-c4ccccc4)c3nc2cc1C (stereo not given)
3. COc1ccc(-c2c(C#N)c(-c3ccccc3)n(NS(=O)(=O)c3ccccc3)c(=O)c2C#N)cc1
4. COc1cc2c(cc1C)NC(=O)/C2=C\c1cc(OC)c(OC)c(OC)c1
5. O=C1C=C(c2c(O)ccc3ccccc23)c2ccccc2C1=O

[reply]
1: < 0.0001 µM; 2: > 100 µM; 3: > 100 µM; 4: > 100 µM; 5: 4.42 µM

Provide the reported TGI of each entry below, same order.
1. CC(C)(C)OC(=O)CC(NC(=O)OC(C)(C)C)C(=O)NC(CCCCNC(=O)OCc1ccccc1)C(=O)NC(C)(C)C(=O)NCCC(=O)OCc1ccccc1 (stereo not given) (Boc-D(OtBu)K(Cbz)[Aib][βAla]-OBn; configuration not given here)
2. CSCCC(NC(=O)OC(C)(C)C)C(=O)NCCNc1ccc(NCCNC(=O)C(CCSC)NC(=O)OC(C)(C)C)c2c1C(=O)c1ccccc1C2=O (stereo not given)
3. COc1ccc2c(c1)sc1nc(-c3ccccc3)c(-c3ccsc3)n12
4. COC1/C=C/C(C)C(C(C)C(OC)C(C)CCC(=O)C(C)C(CCC(=O)O)OC)OC(=O)/C=C/C=C(\C)CC(OC)CC2=CC(=O)O[C@@H](C(C)C(OC)CC(OC)/C=C/C(C)C(OC)C1)[C@H]2O (stereo not given in full)

[reply]
1: > 100 µM; 2: 22.8 µM; 3: > 100 µM; 4: > 3.67 µM
